Target: Serine/threonine-protein kinase PknB (Mycobacterium tuberculosis)
Sequence (P9WI81 whole entry): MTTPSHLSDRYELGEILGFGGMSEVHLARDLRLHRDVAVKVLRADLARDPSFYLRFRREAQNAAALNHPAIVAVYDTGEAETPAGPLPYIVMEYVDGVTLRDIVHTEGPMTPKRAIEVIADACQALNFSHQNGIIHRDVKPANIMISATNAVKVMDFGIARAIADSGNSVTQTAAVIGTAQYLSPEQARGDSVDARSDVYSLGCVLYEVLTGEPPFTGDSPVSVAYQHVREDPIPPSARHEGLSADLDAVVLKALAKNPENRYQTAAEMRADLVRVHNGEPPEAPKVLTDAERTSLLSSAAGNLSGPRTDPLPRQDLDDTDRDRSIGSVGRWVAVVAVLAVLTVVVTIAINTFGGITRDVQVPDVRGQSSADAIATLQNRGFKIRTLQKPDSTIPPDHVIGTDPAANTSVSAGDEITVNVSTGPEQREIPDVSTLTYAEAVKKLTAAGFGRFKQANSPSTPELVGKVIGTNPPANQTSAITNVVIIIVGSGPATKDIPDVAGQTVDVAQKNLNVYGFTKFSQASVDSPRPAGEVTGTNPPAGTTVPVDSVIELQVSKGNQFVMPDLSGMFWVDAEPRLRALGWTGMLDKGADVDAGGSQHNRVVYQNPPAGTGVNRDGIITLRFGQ
// Ki lookup, one value per entry
Write the number in µM without appending the unit.

> print(dat)
                           smiles.structure  assay.result
1           CCN(CC)c1ccc(NC(=O)CC(=O)NN)cc1          13.1
2  NNC(=O)CC(=O)Nc1ccc([N+](=O)[O-])cc1[N+](=O)[O-]          6.38

Proceed to the following item.
Query: For the compound NNC(=O)CC(=O)Nc1ccc(Cl)c(Cl)c1 , report Ki.
Response: 9.21

---

target: Serine/threonine-protein kinase PknB (Mycobacterium tuberculosis, UniProt P9WI81)
Output label 1 for records whose Ki is lower than 8 µM, label 0 for records at or above 8 µM.

// below: answered compounds
> print(dat)
                     smiles.structure                               test.system  label.value
1        NNC(=O)CC(=O)Nc1ccccc1C(=O)O  Serine/threonine-protein kinase PknB (Mycobacterium tuberculosis, UniProt P9WI81)      label 1
2      COc1ccc(OC)c(NC(=O)CC(=O)NN)c1  Serine/threonine-protein kinase PknB (Mycobacterium tuberculosis, UniProt P9WI81)      label 1
3  NNC(=O)CC(=O)Nc1ccc(S(=O)(=O)O)cc1  Serine/threonine-protein kinase PknB (Mycobacterium tuberculosis, UniProt P9WI81)      label 1
4              NNC(=O)CC(=O)NCc1ccco1  Serine/threonine-protein kinase PknB (Mycobacterium tuberculosis, UniProt P9WI81)      label 0

Then this compound:
Query: Identify whether the compound CCCc1ccc(NC(=O)CC(=O)NN)cc1 records Ki below 8 µM.
Response: label 0
